Target: Lon protease (Escherichia coli (strain K12))
Assay: inhibitors of E. coli Lon protease, primary screen, biochemical, fluorescence polarization (AID 602123);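 also: 0% = enzyme with probe and DMSO and 100% = no enzyme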
Conditions: purified E. coli Lon protease, at 7.94 µM
The whole screen tested about 360,000 compounds, of which about 1,500 (0.42%) were called active. Rule as the data show it: active = inhibition above about 13% (passing the limit was not always enough); inactive = the rest. The list comes from a sample in which actives are over-represented; it also holds close analogues and randomly drawn compounds.
Outcomes: 1 (yes) (active), 0 (no) (inactive)

                            compound_string  qualitative_label
0     CCOC(=O)C(=CNNc1ccsc1C(=O)OC)C(=O)OCC             0 (no)
1  O=C(CNC(=O)c1ccccc1F)OCC(=O)c1c[nH]c2ccccc12             0 (no)
2   O=C1c2ccccc2C(=O)c2c1cccc2N1CCN(CCO)CC1            1 (yes)
3  O=C(C1CCN(S(=O)(=O)Cc2ccccc2)CC1)N1CCCc2ccccc21             0 (no)
4  CCOC(=O)[C@]12CCCC=C1N(Cc1ccc3c(c1)OCO3)C(=O)[C@H](CC(=O)NCc1cccs1)C2             0 (no)

meta.source: PubChem BioAssay AID602123
